- assay_remarks: log P by HPLC on a reversed-phase column (C 18), EEC Directive 79/831 Annex V.A8
- Format: physicochemical
- reported_conditions: HPLC on reversed-phase column (C 18), 40° C., 0.1% aqueous formic acid and acetonitrile, linear gradient 10% to 90% acetonitrile
Listing of recorded logP by entry.
value_type: logP

compound: Cn1nc(C(F)F)c(C(=O)N(Cc2cc(F)ccc2-c2csc3ccccc23)C2CC2)c1F
result_number: 4.39
//
compound: Cc1ccc(-c2csc3ccccc23)c(CN(C(=O)c2c(C(F)F)nn(C)c2F)C2CC2)c1
result_number: 4.64
//
compound: Cn1nc(C(F)F)c(C(=O)N(Cc2cc(F)ccc2-c2ccoc2)C2CC2)c1F
result_number: 3.33
//
compound: COc1ccsc1-c1ccc(C)cc1CN(C(=O)c1cn(C)nc1C(F)F)C1CC1
result_number: 3.46
//
compound: Cn1nc(C(F)F)c(C(=O)N(Cc2cc(F)ccc2C2(C)CO2)C2CC2)c1Cl (stereo not drawn)
result_number: 3.00
//
compound: Cc1ccc(-c2csc3ccccc23)c(CN(C(=O)c2cn(C)nc2C(F)F)C2CC2)c1
result_number: 4.15
//
compound: Cc1ccc(-c2cscc2C)c(CN(C(=O)c2c(C(F)F)nn(C)c2F)C2CC2)c1
result_number: 4.25
//
compound: Cn1nc(C(F)F)c(C(=O)N(Cc2cc(Cl)ccc2-c2ccsc2)C2CC2)c1F
result_number: 3.99
//
compound: Cc1ccc(-c2ccsc2Cl)c(CN(C(=O)c2c(C(F)F)nn(C)c2Cl)C2CC2)c1
result_number: 4.44

* * *

Reported logP values for a set of molecules
- assay_remarks: log P by HPLC on a reversed-phase column (C 18), EEC Directive 79/831 Annex V.A8
- Type: physicochemical
- reported_conditions: HPLC on reversed-phase column (C 18), 40° C., 0.1% aqueous formic acid and acetonitrile, linear gradient 10% to 90% acetonitrile
value_type: logP

query_smiles: Cn1nc(C(F)F)c(C(=O)N(Cc2cc(Cl)ccc2-c2cccs2)C2CC2)c1Cl
result_number: 4.29

query_smiles: Cn1nc(C(F)F)c(C(=S)N(Cc2ccccc2-c2cccs2)C2CC2)c1Cl
result_number: 4.49

query_smiles: COc1ccsc1-c1ccc(F)cc1CN(C(=O)c1c(C(F)F)nn(C)c1F)C1CC1
result_number: 3.63

query_smiles: Cc1ccc(-c2cnn(C)c2)c(CN(C(=O)c2c(C(F)F)nn(C)c2F)C2CC2)c1
result_number: 2.63

query_smiles: Cc1ccc(-c2cnn(C)c2)c(CN(C(=O)c2c(C(F)F)nn(C)c2Cl)C2CC2)c1
result_number: 2.71

* * *

Examples of compounds with documented logP follow.
- assay_remarks: log P by HPLC on a reversed-phase column (C 18), EEC Directive 79/831 Annex V.A8
- Assay type: physicochemical
- reported_conditions: HPLC on reversed-phase column (C 18), 40° C., 0.1% aqueous formic acid and acetonitrile, linear gradient 10% to 90% acetonitrile

compound: CC(c1ccccc1-c1ccsc1)N(C(=O)c1c(C(F)F)nn(C)c1F)C1CC1 (centres unmarked) [I.82]
logP: 3.78
//
compound: Cc1ccc(-c2cnn(C)c2)c(CN(C(=O)c2cn(C)nc2C(F)F)C2CC2)c1 [I.59]
logP: 2.37
//
compound: COc1ccsc1-c1ccc(Cl)cc1CN(C(=O)c1c(C(F)F)nn(C)c1F)C1CC1 [I.121]
logP: 3.99
//
compound: Cc1cscc1-c1ccc(F)cc1CN(C(=O)c1c(C(F)F)nn(C)c1F)C1CC1 [I.102]
logP: 3.94
//
compound: Cn1nc(C(F)F)c(C(=O)N(Cc2ccccc2-c2ccc(Cl)s2)C2CC2)c1Cl [I.141]
logP: 4.51
//
compound: Cc1ccc(-c2cnn(C)c2)c(CN(C(=O)c2c(C(F)F)nn(C)c2Cl)[C@@H]2C[C@H]2C)c1 (relative stereo) [I.64]
logP: 2.86
//
compound: Cc1ccc(-c2ccoc2)c(CN(C(=O)c2c(C(F)F)nn(C)c2Cl)C2CC2)c1 [I.37]
logP: 3.71
//
compound: Cc1nn(C)c(C)c1-c1ccc(F)cc1CN(C(=O)c1c(C(F)F)nn(C)c1F)C1CC1 [I.112]
logP: 2.66

* * *

- Tested on: Septoria tritici
- assay_remarks: In vivo preventive test on Septoria tritici (wheat)
- reported_conditions: 500 ppm of active ingredient; wheat plants; 24 days after contamination
The reader will find reported Efficacy values listed item by item below.

molecule: Cc1ccc(C2(C)CO2)c(CN(C(=O)c2c(C(F)F)nn(C)c2F)C2CC2)c1 (stereo not drawn)
readout_units: %
Efficacy: 97

molecule: COc1ccsc1-c1cc(F)ccc1CN(C(=O)c1c(C(F)F)nn(C)c1F)C1CC1
readout_units: %
Efficacy: 100

molecule: CC1CC1N(Cc1ccccc1-c1ccsc1)C(=O)c1c(C(F)F)nn(C)c1Cl (stereo not drawn)
readout_units: %
Efficacy: 79

molecule: Cc1csc(-c2ccc(F)cc2CN(C(=O)c2c(C(F)F)nn(C)c2F)C2CC2)c1
readout_units: %
Efficacy: 100

molecule: Cn1nc(C(F)F)c(C(=O)N(Cc2ccccc2C2(C)CO2)C2CC2)c1F (stereo not drawn)
readout_units: %
Efficacy: 100

molecule: Cn1nc(C(F)F)c(C(=O)N(Cc2ccccc2-c2csc3ccccc23)C2CC2)c1F
readout_units: %
Efficacy: 96

molecule: Cn1nc(C(F)F)c(C(=O)N(Cc2ccccc2-c2ccc(Cl)s2)C2CC2)c1F
readout_units: %
Efficacy: 96

molecule: Cc1nn(C)c(C)c1-c1ccc(F)cc1CN(C(=O)c1c(C(F)F)nn(C)c1F)C1CC1
readout_units: %
Efficacy: 100

molecule: Cn1cc(C(=O)N(Cc2ccccc2-c2cccs2)C2CC2)c(C(F)F)n1
readout_units: %
Efficacy: 80

molecule: Cn1nc(C(F)F)c(C(=O)N(Cc2ccccc2-c2cccs2)C2CC2)c1F
readout_units: %
Efficacy: 97

molecule: Cn1nc(C(F)F)c(C(=O)N(Cc2ccccc2-c2coc3ccccc23)C2CC2)c1F
readout_units: %
Efficacy: 96

molecule: Cn1cc(C(=O)N(Cc2cc(-c3ccc(Cl)s3)ccc2Cl)C2CC2)c(C(F)F)n1
readout_units: %
Efficacy: 100

molecule: COc1ccsc1-c1ccc(Cl)cc1CN(C(=O)c1c(C(F)F)nn(C)c1F)C1CC1
readout_units: %
Efficacy: 80

molecule: Cc1nn(C)c(C)c1-c1ccccc1CN(C(=O)c1c(C(F)F)nn(C)c1F)C1CC1
readout_units: %
Efficacy: 100

molecule: Cn1cc(-c2ccc(Cl)cc2CN(C(=O)c2c(C(F)F)nn(C)c2F)C2CC2)cn1
readout_units: %
Efficacy: 95

molecule: Cn1nc(C(F)F)c(C(=O)N(Cc2cc(F)ccc2-c2coc3ccccc23)C2CC2)c1F
readout_units: %
Efficacy: 90

molecule: COc1ccsc1-c1cc(Cl)ccc1CN(C(=O)c1c(C(F)F)nn(C)c1F)C1CC1
readout_units: %
Efficacy: 94

molecule: Cn1nc(C(F)F)c(C(=O)N(Cc2ccccc2-c2ccc(Cl)s2)C2CC2)c1Cl
readout_units: %
Efficacy: 83

* * *

Reported Efficacy values are given for each entry in this list.
- Tested on: Botrytis cinerea
- assay_remarks: In vivo preventive test on Botrytis cinerea (grey mould)
- reported_conditions: 500 ppm of active ingredient; gherkin plants; 4 to 5 days after contamination
- Experimental: In Vivo Preventive Test on Botrytis cinerea (Grey Mould) […] Gherkin plants (“Vert petit de Paris” variety), sown in starter cups on a 50/50 peat soil pozzolana substrate and grown at 24° C., are treated at the Z11 cotyledon stage by spraying with the active ingredient prepared as described above. Plants, used as controls, are treated with the mixture of acetone/tween/DMSO/water not containing the active material. […]

molecule: Cc1csc(-c2ccccc2CN(C(=O)c2c(C(F)F)nn(C)c2F)C2CC2)c1 [I.100]
Efficacy: 80%

molecule: Cn1nc(C(F)F)c(C(=O)N(Cc2ccc(F)cc2-c2csc3ccccc23)C2CC2)c1F [I.158]
Efficacy: 100%

molecule: Cn1nc(C(F)F)c(C(=O)N(Cc2ccccc2-c2coc3ccccc23)C2CC2)c1F [I.131]
Efficacy: 100%

molecule: Cn1nc(C(F)F)c(C(=O)N(Cc2cc(F)ccc2-c2coc3ccccc23)C2CC2)c1F [I.129]
Efficacy: 92%

* * *

- Test system: Botrytis cinerea
- assay_remarks: In vivo preventive test on Botrytis cinerea (grey mould)
- reported_conditions: 500 ppm of active ingredient; gherkin plants; 4 to 5 days after contamination
- Protocol: In Vivo Preventive Test on Botrytis cinerea (Grey Mould) […] Gherkin plants (“Vert petit de Paris” variety), sown in starter cups on a 50/50 peat soil pozzolana substrate and grown at 24° C., are treated at the Z11 cotyledon stage by spraying with the active ingredient prepared as described above. Plants, used as controls, are treated with the mixture of acetone/tween/DMSO/water not containing the active material. […]
Measured Efficacy by item

query_smiles: Cc1cscc1-c1ccc(Cl)cc1CN(C(=O)c1c(C(F)F)nn(C)c1F)C1CC1
Efficacy, %: 93
//
query_smiles: Cn1cc(C(=O)N(Cc2cc(-c3ccc(Cl)s3)ccc2Cl)C2CC2)c(C(F)F)n1
Efficacy, %: 98
//
query_smiles: Cn1nc(C(F)F)c(C(=O)N(Cc2ccccc2-c2ccc(Cl)s2)C2CC2)c1F
Efficacy, %: 100
//
query_smiles: Cc1csc(-c2ccc(Cl)cc2CN(C(=O)c2c(C(F)F)nn(C)c2F)C2CC2)c1
Efficacy, %: 98
//
query_smiles: Cn1nc(C(F)F)c(C(=O)N(Cc2ccccc2-c2ccc(Cl)s2)C2CC2)c1Cl
Efficacy, %: 90
//
query_smiles: Cn1nc(C(F)F)c(C(=S)N(Cc2cc(Cl)ccc2-c2cccs2)C2CC2)c1F
Efficacy, %: 100
//
query_smiles: Cc1csc(-c2ccc(C(C)C)c(CN(C(=O)c3c(C(F)F)nn(C)c3F)C3CC3)c2)c1
Efficacy, %: 80
//
query_smiles: Cn1nc(C(F)F)c(C(=O)N(Cc2ccc(Cl)cc2-c2csc3ccccc23)C2CC2)c1F
Efficacy, %: 100
